# ASSAY TARGET: T1, human IL-1RAcP on 293T/17-FR cells (human, UniProt Q9NPH3 21-570)
# T1 sequence (looked up): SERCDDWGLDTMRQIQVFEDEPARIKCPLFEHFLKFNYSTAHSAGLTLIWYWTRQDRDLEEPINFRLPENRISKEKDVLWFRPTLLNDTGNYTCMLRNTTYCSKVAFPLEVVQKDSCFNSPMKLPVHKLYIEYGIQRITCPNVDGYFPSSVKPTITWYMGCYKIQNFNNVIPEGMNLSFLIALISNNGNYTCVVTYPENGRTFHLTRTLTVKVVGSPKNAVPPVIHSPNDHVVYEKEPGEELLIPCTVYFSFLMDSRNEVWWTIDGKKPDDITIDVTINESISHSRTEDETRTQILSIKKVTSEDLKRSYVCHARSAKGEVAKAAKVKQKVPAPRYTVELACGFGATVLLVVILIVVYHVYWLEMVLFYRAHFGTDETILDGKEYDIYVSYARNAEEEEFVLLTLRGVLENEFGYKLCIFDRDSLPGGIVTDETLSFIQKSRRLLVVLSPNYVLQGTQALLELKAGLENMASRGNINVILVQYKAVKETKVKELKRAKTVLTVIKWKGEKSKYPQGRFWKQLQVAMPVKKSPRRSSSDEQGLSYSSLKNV
# ASSAY COMMENT: cell-based or functional assay
PARAMETER MEASURED: functional reporter gene assay (% inhibition), 0.2 µg/mL mAb (%)
A number alone suffices; assume %.

[Q] Report functional reporter gene assay (% inhibition), 0.2 µg/mL mAb, nothing else, for this binder: P013.S.01.B.H04 (antibody, V domains shown, rabbit monoclonal antibody; also called P013.A.00014.G05) VH: QSVEESGGRLVTPGTPLTLTCTVSGFSLDSYAMGWVRQAPGKGLEWIGIINSYGSIYYASWAKGRFTISKTSTTVDLKMTSLTTEDTATYFCARSAYSNNGDRLHLWGQGTLVTVSS VL: DIVMTQTPSPVSGAVGGTVTIKCQASEDIYSNLAWYQQKPGQPPKLLIYYVSTLESGVPSRFKGSRSGTDYTLTISDLESADAATYYCQCTEGGSGSDYTFGGGTEVVVK
[A] 49

[Q] Give the reported functional reporter gene assay (% inhibition), 0.2 µg/mL mAb for this binder. P013.S.02.B.E04 (antibody, V domains shown, rabbit monoclonal antibody; also called P013.A.00088.A02) VH: QSLEESGGDLVKPGASLTLTCTASGFSLSSGGMSWVRQAPGKGLGWIGYINTGSGSTYYASWVNGRFTISKTSSTTVSLQMTSLTAADTATYFCAGGLPSDLWGPGTLVTVSS VL: DIVMTQTPSSVEAAVGGTVTIKCQASQSINSRLAWYQQKPGQPPKLLIYSASTLASGVSSRFKGSGSGTEFTLTISDLESADGATYYCLSHYLTSSSSYGDAFGGGTEVVVK
[A] 9
